Source: ChEMBL document CHEMBL4513216

- test-name: Toxicity liver stage against HepG2, at 10uM
- Assay type: cell-based
- Set-up: test concentration 10 uM, cell line HepG2-A16-CD81EGFP
- test-settings: human, HepG2-A16-CD81EGFP cells; read-out: INHIBITION
Task for the reader: assign each of the following molecules its reported cytotoxicity at 10 µM.
Put your answer as a value accompanied by its unit after it.

Qu. Return cytotoxicity at 10 µM for the following molecule: CC1CN(Cc2ccc(C#N)cc2F)CCN1Cc1nccn1C (stereo unspecified)
Ans. -4.66%

Qu. Supply recorded cytotoxicity at 10 µM for CCC(C)Nc1ccc(-c2nc(-c3cccc(OC)c3OC)no2)cn1 (stereo unspecified) here.
Ans. 24.8%

Qu. Give recorded cytotoxicity at 10 µM. O=C(NCc1ccccc1)NCC1CCN(Cc2ccsc2)CC1
Ans. -14.1%

Qu. Item C[C@@H]1CN(C(=O)C2(Cn3cccn3)CC2)CC[C@@]1(O)C1CCOCC1 : provide cytotoxicity at 10 µM
Ans. 3.48%

Qu. Return value of cytotoxicity at 10 µM for input Cc1ccc(N2CC[C@@H]3O[C@@H](c4ccncn4)C[C@H]3C2)nn1 , no commentary.
Ans. 10.8%

Qu. Quote cytotoxicity at 10 µM reported for CCc1nnc(CN(C)c2cc(C)nc3c(C)c(C)nn23)o1 please.
Ans. 0.126%

Qu. Report measured cytotoxicity at 10 µM; entry is Cn1nc(C2CCN(C(=O)c3cnccn3)C2)cc1CCO (stereo unspecified)
Ans. 9.95%

Qu. Determine its reported cytotoxicity at 10 µM: CCc1nnsc1C(=O)N1CCN(CC(O)CC)CC1 (stereo unspecified)
Ans. -6.06%

Qu. Identify measured cytotoxicity at 10 µM associated with CCc1ncc(C(=O)N2C[C@@H](C)O[C@@H](C)C2)cn1
Ans. -4.34%

Qu. Give recorded cytotoxicity at 10 µM. CCc1nccc(CN2CCC(CNC(=O)C3CCC(C)CC3)C2)n1 (stereo unspecified)
Ans. -4.51%

Qu. Give reported cytotoxicity at 10 µM value for COc1ccccc1C1(CNc2ccnc(C(=O)N(C)C)c2)CC1
Ans. -1.67%
